Here the recorded apparent KD of MS2 coat protein is given for each entry.
System: MS2 coat protein
Test: apparent KD of MS2 coat protein, switch ON state; designed switch direction (-1 OFF switch, 1 ON switch): -1; higher = weaker reporter binding
Conditions: FMN input: 0 or 200 uM; Eterna round: R93 (includes R88 designs)
reported_metric: apparent KD of MS2 coat protein (µM)

> print(dat)
                             residue.string               tgt  measurement.unit  reported
1  CUCAAGUUAGGAUAUCGAAGAAAAGAAGAGAAAGAAAAGAACGAGAAGGAACAUGAGGAUCACCCAUGUAAGAA [EteRNA is fun!]  MS2 coat protein                µM    0.0118
2  CUUAUGUGAGGAUAUGUACAGAAAAAACUGGGUGUAACUGUACAGAAGGCACAUGAGGAUCACCCAUGUAAAAA [EX4 387: S S Pseudoknot 12]  MS2 coat protein                µM    0.0364
3  AAGAAGUGAGGAUAUGCUGACAAUAUGAAGACUUGAGGUAUGCAGAAGGCACAUGAGGAUCACCCAUGUAAGAA [JR_Exclusion4_Sub4]  MS2 coat protein                µM    0.0274
4  AAAAAAAGAGGAUAUACGAACAUGUCGAAAGACGUGAAGGGACAUGAGGAUCACCCAUGUAGAAGGUUUAAAAA [Mat - Exclusion 2 - JL mod - D83]  MS2 coat protein                µM    0.0285
5  AUGAGAGCAGGAUAUGCAGGUGAGCCGGAAGAAAGAAGAAGACAUGAGGAUCACCCAUGUAGAAGGGCUAGCCC [Madiesxe]  MS2 coat protein                µM    0.0419
6  AGUCAUACAGGAUAUACAUGAGGAUCACCCAUGUUUAUCCUAAAAAAAUAAAAAACAUGUAGAAGGGUAUGACA [EX3 216: Super Stable 16]  MS2 coat protein                µM    0.0129
7  AAAAAGUGAGGAUAUUCGGAUAGGAAAACGAAAACCUAUCCGAAGAAGGCACAUGAGGAUCACCCAUGUGGAAA [67% Ecls-II - Early G + late G segment 2]  MS2 coat protein                µM    0.0226

###

System: MS2 coat protein
Assay: apparent KD of MS2 coat protein; designed switch direction (-1 OFF switch, 1 ON switch): -1; higher = weaker reporter binding
Settings: input ligand: none
# apparent KD of MS2 coat protein values compiled below

residue_string	measurement_unit	apparent KD of MS2 coat protein
GGGUGACAUGAGGAUCACCCAUGUCAGGAUAUGAUUCUGCUUGCGAAAGCGAGUAGAAUCAGAAGGGACAACCC (Eterna round: R97, puzzle: Exclusion 1)	nM	57
UAUCGCAAGCGAAGAUCCCACAUGAGGAUCACCCAUGUGCUCGUCUUAUAAGGUACUGUGACGAAAGUCACGGUACC [Sensor 3, v1 - 91 v15] (Eterna round: R97, puzzle: Sensor, turn-off variant 1)	nM	32.2
AAUAAUGAGAAGGAUAUCACUAGCGAUAGCUAGUGAGAAGGUCUCACAUGAGGAUCACCCAUGUGUUCCAAUAA [Mod1 Ex6/6-A4 by Brourd] (Eterna round: R97, puzzle: Exclusion 6)	nM	221
UUAUCAUGCUUUAGAUCCUACAUGAGGAUCACCCAUGUGCUCGUCUUGUAUCGUUCUGUGUCGUAAGUCUCUGUUCG [mod Jandersonlee designer] (Eterna round: R97, puzzle: Sensor, turn-off variant 1)	nM	1390
AGCUGACGAGGAUAUACAUGAGGAUCACCCAUGUUGGUCAAGCGACGAUAGUCGCAAUGUAGAAGGCGUCAGCU [E3/8-A1] (Eterna round: R97, puzzle: Exclusion 3)	nM	547
AACGUACAGCAAAGCUGUACGCGUACAUGAGGAUCACCCAUGUAGGAUAUGGUAGGCAAAGCUUACUAGAAGGAUAGAGUGAUC [Mat - Exclusion NG 3 - Mod of JL - D77] (Eterna round: R96, puzzle: Exclusion NG 3)	nM	333
GACCUACAUGAGGAUCACCCAUGUGAGGAUAUAUUGUUAUUUAUAAUAUUUUUUAGUGGUAGAAGGCGCGUGAU [JR_Exc1_Sub018] (Eterna round: R97, puzzle: Exclusion 1)	nM	20.2
AUAAUGUAAGGAUAUCAGUCGACUAGCCUCGGCUAGUCGACUGAGAAGGUACAUGAGGAUCACCCAUGUGUUUC [E4/12-A3] (Eterna round: R97, puzzle: Exclusion 4)	nM	35.6
AGGAGACAUGAGGAUCACCCAUGUGAGGAUAUCGAUGUUACGUGGAUAACCACUUCGUUGAGAAGGCACGCUUC [Eternabot (L2) Solution 55] (Eterna round: R97, puzzle: Exclusion 1)	nM	38.6
AAAUAGCGAGGAUAUACUGGAAUAGAAAAUAUUCGCAUGGCACAUGAGGAUCACCCAUGUAGAAGGCGCAGUAA (Eterna round: R97, puzzle: Exclusion 2)	nM	25.5
AAUUUUUAUGUAAGGAUAUGGGUUUGGAAACGGGCUUAGAAGGUACAUGAGGAUCACCCAUGUAUAAUGUGCGU [-19.9, -19.7 kcal, 30% A] (Eterna round: R97, puzzle: Brourd's mod of Exclusion 4)	nM	18.3
ACCUCACUUGAGGAUCACCCAAGUCAGGAUAUACUCGUUUGCCGCACGACGCGGCAUUGUAGAAGGGACGGGCU [Soraedrale] (Eterna round: R97, puzzle: Exclusion 1)	nM	18.1
AGUCGGUCAGGAUAUGCAAUCGUGGACAUGAGGAUCACCCAUGUAACGUGGGCCUGGUUUGUAGAAGGGACGUGCA [EX5 #88] (Eterna round: R97, puzzle: Exclusion 5)	nM	55.2

###

Test system: MS2 coat protein
Assay: apparent KD of MS2 coat protein; designed switch direction (-1 OFF switch, 1 ON switch): -1; higher = weaker reporter binding
Conditions: input ligand: microRNA oligo, concentration not stated
Where apparent KD of MS2 coat protein equals or exceeds 30 nM, the correct label is MET; where it does not, the label is NOT MET.

residue_string	class_assignment
GACCUAUAGGUAGGAUAUCAUUGCGAUUAGCUAUGAGAAGGACCACAUGAGGAUCACCCAUGUCCUCCAAUUAACCAUUUGGUC [Fiskers ExNg1 - 4] (Eterna round: R96, puzzle: Exclusion NG 1)	MET
UUAUUGUGUGUAGGAUAUGCGUGUUAUUAUUAUGCAGAAGGACAUGAGGAUCACCCAUGUGUAUUAUUAUUAUAUAUUAUAUAU [Title] (Eterna round: R96, puzzle: Exclusion NG 1)	NOT MET
UUUGUUUAGGUAGGAUAUACUUUUAAUUUCUCUUUCCUUACAUGAGGAUCACCCAUGUUUACAUUGUAGAAGGACCACUUUGUU [JR_ExcNG2_Sub052] (Eterna round: R96, puzzle: Exclusion NG 2)	NOT MET
ACAUGAGGAUCACCCAUGUAAACAUAAUGGCUCAUGUAGAGUCAGGAUAUGCGUGGCGAACAACCGCAGAAGGGACAAGACUGG [Deportation 27 - Jieux - Exclusion NG 3] (Eterna round: R96, puzzle: Exclusion NG 3)	NOT MET
AAGAAGUCAGGAUAUGCUAAAGAAAUAAAAAGAAAGAAAGAACAUGAGGAUCACCCAUGUAGAAGGGACAAGAA [Seheqenre Sankhptahi] (Eterna round: R96, puzzle: Exclusion 2)	MET
ACAUGAGGAUCACCCAUGUCCGGCUGGUCCGUUUCGGCUGUCGAGGAUAUAGUUCGGUGUCCGCGCUAGAAGGCGGGAGCUGGC [Aenatbe mod 61] (Eterna round: R96, puzzle: Exclusion NG 3)	MET

###

System: MS2 coat protein
Experiment: apparent KD of MS2 coat protein; designed switch direction (-1 OFF switch, 1 ON switch): -1; higher = weaker reporter binding
Details: Eterna round: R95; input ligand: none
reported_metric: apparent KD of MS2 coat protein

residue_string	tgt	reported_metric	reported
UGGCUGCUCAGGGAGUGUGACAUGAGGAUCACCCAUGUGGUAGUAAGGAACAAGCUUUUUGCACGUACUUAUGGGUC [JR_SV3TOV1_Sub010] (puzzle: Sensor v3, turn-off variant 1)	MS2 coat protein	apparent KD of MS2 coat protein	375 nM
AGGGAUAAAGGAUAUACAUGAGGAUCACCCAUGUUGAGGAAAGUGAGAUGAGGAGGAAGUAGAAGGUUAGGCGG [JR_Exclu3_Sub084] (puzzle: Exclusion 3)	MS2 coat protein	apparent KD of MS2 coat protein	31.4 nM
UGGCUGCUCAGGGAGUGUGACAUGAGGAUCACCCAUGUGGUGGUAGGGAACAAGCUUUUUGCACGUACUUAUGAGUC [JR_SV3TOV1_Sub009] (puzzle: Sensor v3, turn-off variant 1)	MS2 coat protein	apparent KD of MS2 coat protein	388 nM
GGUCGGCGAGGAUAUACAUGAGGAUCACCCAUGUGAUUUAGUGCACGCGUACGUGUACGUAGAAGGCGCUGACG [JL-ex3-3.27 salish99 mod] (puzzle: Exclusion 3)	MS2 coat protein	apparent KD of MS2 coat protein	11.3 nM
GAGAAACAUGAGGAUCACCCAUGUGAGGAUAUGAAAAAGAAAAGAAAAGAAAGAAGAAUCAGAAGGCACAAAGC [salish99-ex1_r3_091] (puzzle: Exclusion 1)	MS2 coat protein	apparent KD of MS2 coat protein	30 nM
GAUACCCAAGUCAGGAUAUCGGGAUACGAAAGUCACGAGAAGGGACAUGAGGAUCACCCAUGUAAAUAAAUAAA [Arege] (puzzle: Brourd's mod of Exclusion 4)	MS2 coat protein	apparent KD of MS2 coat protein	33.2 nM
AGAUGUAGAUACCGGUCCUACAUGAGGAUCACCCAUGUAGCUAGACGUGCGGGCGGCGCUCGUCGGUCUACCAGUAG [salish99_TOv1_r3_099] (puzzle: Sensor v3, turn-off variant 1)	MS2 coat protein	apparent KD of MS2 coat protein	37.7 nM
UAUUAGCAAGCUAGAUCCCACAUGAGGAUCACCCAUGUGCUCGUCUUAUAAGGUACUGUGACGAAAGUCACGGUACC [Sensor 3, v1 - 96] (puzzle: Sensor v3, turn-off variant 1)	MS2 coat protein	apparent KD of MS2 coat protein	57.5 nM
AACUAGGCAGGAUAUACAUGAGGAUCACCCAUGUGCCAAUACAAAGGGACUAACAGAGGUAGAAGGGCCUAGAA [ChP 13.04.2015 #2] (puzzle: Exclusion 3)	MS2 coat protein	apparent KD of MS2 coat protein	34.3 nM
CGGUACUGAGGAUAUACAUGAGGAUCACCCAUGUGUUCUAGCUAGCGUACUGGCAUUAGUAGAAGGCGGUGCUG [JL-ex3-3.18 Brourd mod] (puzzle: Exclusion 3)	MS2 coat protein	apparent KD of MS2 coat protein	17.2 nM
UUUUAGAGAGGAUAUAUAUUGUGAAACAUGAGGAUCACCCAUGUAAUAAUAUGGAUAUAAAUAGAAGGCUCAUUUA [Mat - Exclusion 5 - JL mod - D8] (puzzle: Exclusion 5)	MS2 coat protein	apparent KD of MS2 coat protein	28.8 nM
AGUUGGCGAGGAUAUACAUGAGGAUCACCCAUGUGAGAGAAAAAAGUGAGGAAGAAAAGUAGAAGGCGCUGACU [salish99_ex3_r3_039] (puzzle: Exclusion 3)	MS2 coat protein	apparent KD of MS2 coat protein	60.4 nM
ACCUCACAUGAGGAUCACCCAUGUCAGGAUAUGUACCCGAUCAAGUCAGAGAUCGGAAGCAGAAGGGACUGCGG [Bemabebe] (puzzle: Exclusion 1)	MS2 coat protein	apparent KD of MS2 coat protein	86.5 nM
UCAAGCUUUAAGCGUGUGAACAUGAGGAUCACCCAUGUAUUUUAGGUAAUAAGUUCUUUUAUGUAUUCUCGUCUUAU [JR_SWV3TOV1_Sub094] (puzzle: Sensor v3, turn-off variant 1)	MS2 coat protein	apparent KD of MS2 coat protein	136 nM
